# Test system: RARg:RXRa (NR concentration 270 nM, RXRa partner concentration 90 nM)
# Assay explanation: PBM binding z-score (relative to random genomic background probes); higher = stronger binding; sequences stand for … in GC…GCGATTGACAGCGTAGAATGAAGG
Classification field: enter class 1 for PBM binding z-score values not below 4, class 0 for values below it.

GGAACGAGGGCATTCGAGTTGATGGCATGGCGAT class 0
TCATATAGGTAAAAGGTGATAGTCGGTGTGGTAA class 0
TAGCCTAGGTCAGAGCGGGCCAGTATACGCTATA class 0

(Q) Does "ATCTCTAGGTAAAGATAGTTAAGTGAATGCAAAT" have a reported PBM binding z-score of at least 4?
(A) class 0

(Q) Does "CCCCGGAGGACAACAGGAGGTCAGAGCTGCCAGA" have a reported PBM binding z-score of at least 4?
(A) class 0

(Q) Does "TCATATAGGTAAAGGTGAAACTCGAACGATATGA" have a reported PBM binding z-score of at least 4?
(A) class 0

(Q) Does "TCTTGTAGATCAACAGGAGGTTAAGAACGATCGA" have a reported PBM binding z-score of at least 4?
(A) class 0

(Q) Does "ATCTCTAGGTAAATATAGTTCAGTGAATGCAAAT" have a reported PBM binding z-score of at least 4?
(A) class 0

(Q) Does "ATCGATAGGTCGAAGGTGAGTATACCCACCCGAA" have a reported PBM binding z-score of at least 4?
(A) class 0

(Q) Does "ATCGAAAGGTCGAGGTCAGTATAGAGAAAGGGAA" have a reported PBM binding z-score of at least 4?
(A) class 1

(Q) Does "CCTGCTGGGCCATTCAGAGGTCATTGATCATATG" have a reported PBM binding z-score of at least 4?
(A) class 1

(Q) Does "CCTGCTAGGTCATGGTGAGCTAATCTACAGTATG" have a reported PBM binding z-score of at least 4?
(A) class 0

(Q) Does "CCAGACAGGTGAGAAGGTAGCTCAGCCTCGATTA" have a reported PBM binding z-score of at least 4?
(A) class 0

(Q) Does "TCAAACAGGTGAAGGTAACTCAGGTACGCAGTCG" have a reported PBM binding z-score of at least 4?
(A) class 0

(Q) Does "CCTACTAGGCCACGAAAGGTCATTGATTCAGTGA" have a reported PBM binding z-score of at least 4?
(A) class 1

(Q) Does "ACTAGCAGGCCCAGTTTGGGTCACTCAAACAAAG" have a reported PBM binding z-score of at least 4?
(A) class 0

(Q) Does "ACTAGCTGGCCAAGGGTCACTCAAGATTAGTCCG" have a reported PBM binding z-score of at least 4?
(A) class 0

(Q) Does "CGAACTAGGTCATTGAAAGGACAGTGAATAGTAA" have a reported PBM binding z-score of at least 4?
(A) class 1

(Q) Does "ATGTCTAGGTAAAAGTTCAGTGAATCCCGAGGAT" have a reported PBM binding z-score of at least 4?
(A) class 0

###

# System: PPARg:RXRa IVT, anti-PPARg (NR concentration 270 nM, RXRa partner concentration 90 nM)
# Assay explanation: PBM binding z-score (relative to random genomic background probes); higher = stronger binding; sequences stand for … in GC…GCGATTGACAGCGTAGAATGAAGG
Measured PBM binding z-score of individual entries
Answer as a number with no unit attached.

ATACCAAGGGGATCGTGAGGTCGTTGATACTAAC -0.121

(Q) # lookup: PBM binding z-score of "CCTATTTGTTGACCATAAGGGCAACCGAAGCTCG"
(A) 0.84

(Q) # lookup: PBM binding z-score of "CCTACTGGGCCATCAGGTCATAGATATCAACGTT"
(A) 5.08

(Q) # lookup: PBM binding z-score of "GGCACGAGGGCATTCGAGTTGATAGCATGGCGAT"
(A) 0.977

Reference source for all entries: the supplement of paper PMC6555819
